Reported melting point values follow for various compounds
QUANTITY_MEASURED: melting point

# COMPOUND, RESULT
rows = [
    ("CCN1CCCC(NC(=O)Cn2c(-c3ccc(Br)cc3)nc3cccnc32)C1 (configuration not stated)", "190 to 192 °C"),
    ("CN(C)c1ccc(-c2ccnc3c(C(=O)c4cccs4)cnn23)cc1NC(=O)c1ccncc1", "151 to 153 °C"),
    ("CC1Cc2c(n(Cc3ccc(Cl)cc3)c3ccc(F)cc23)C(CC(=O)O)C1 (configuration not stated)", "205 to 206 °C"),
    ("O=[N+]([O-])c1cc(Cl)c(C=CN2CCN(c3nsc4ccccc34)CC2)cc1Cl", "194 to 195 °C"),
    ("Cc1ccc(C(=O)CC(O)C(=O)O)cc1 (configuration not stated)", "92 to 100 °C"),
    ("O=COC(Cc1ccccc1)C1C(=O)NC1SC(c1ccccc1)(c1ccccc1)c1ccccc1 (configuration not stated)", "169 to 171 °C"),
    ("COc1cccc(N)c1C(=O)NC1CCN(C(C)CC(C(=O)N(C)C)(c2ccccc2)c2ccccc2)CC1O (configuration not stated)", "175 °C"),
]

---

# COMPOUND, melting point
data = [
    ("O=C(c1ccccc1)N1CCc2[nH]c3ccc(-c4ccccc4)cc3c2CC1", "140 to 145 °C"),
    ("O=C1c2ccccc2CCC1C(=O)C(F)(F)F (configuration not stated)", "48 to 49 °C"),
    ("N#Cc1ccc(OCC(O)CN2C3CCC2CNC3)cc1 (configuration not stated)", "125 to 128 °C"),
    ("CN(C)C1CCN2CCc3ccccc3C2(c2ccc(F)cc2)C1 (configuration not stated)", "159 to 167 °C"),
    ("C=C(C)C(=O)N1CC(C)OC1(C)C (configuration not stated)", "24 °C"),
    ("CCCN(CCC)C1Cc2c(OC)ccc3ncn(c23)C1 (configuration not stated)", "46 to 49 °C"),
    ("CCN(CC)CCOc1ccc(Nc2ncc3c(n2)N(C)C(=O)N(c2ccccc2C)C3)cc1", "132 °C"),
    ("CCCCCCCCCCCCOc1cccc2c(OCCCCCCCCCCCC)cccc12", "92 to 93 °C"),
    ("Cc1cc(CCCOc2c(C)cc(N3COC(CO)=N3)cc2C)on1", "116 to 117 °C"),
    ("Cc1c(NC(=O)c2ccc(-c3ccc(F)cc3)cc2)ccc2cc(C(C)N3CCCC3)cnc12 (configuration not stated)", "179 to 182 °C"),
    ("COC(=O)C1=C(N)C(=O)NCC1", "192 to 194 °C"),
    ("CCOC(=O)c1ccc(NC(=O)C=C2c3ccccc3CCc3ccccc32)cc1", "178 to 180 °C"),
    ("COC(=O)C=Cc1ccc2c(c1)OCCO2", "66 to 68 °C"),
    ("CCOC(=O)c1c(Oc2ccc(Cl)cc2[N+](=O)[O-])c2ccccc2n1C", "133 to 134 °C"),
    ("COc1ccc(C=CC(=O)C=Cc2ccc(OC)c(OC)c2)cc1OC", "68 to 70 °C"),
    ("CCNC=C(C(=O)C=Cc1cccnc1)C(=O)OC", "78 to 80 °C"),
    ("CC(C)(C)n1cc(C#N)c2cc([N+](=O)[O-])cnc21", "216 to 218 °C"),
    ("CN1c2ccccc2CC1COc1ccc(CC2SC(=O)NC2=O)cc1 (configuration not stated)", "46.1 to 48.9 °C"),
    ("Cc1cc(C(C)(C)C)c(O)c(S(=O)(=O)Nc2ccc(I)cc2)c1", "184 to 185 °C"),
    ("CN(O)C(=O)C=Cc1cccc(Oc2ccccc2)c1", "124 to 125 °C"),
    ("Cn1c(=O)c(-c2ccc(Cl)cc2Cl)cc2c3cc(-c4ccn[nH]4)ccc3[nH]c21", "246 to 250 °C"),
    ("Cc1ccc(Cl)c(Nc2ccccc2C(=O)N(O)Cc2ccccc2)c1Cl", "133 to 135 °C"),
    ("COc1ccc(Cc2nc(OCc3ccccc3)cc3cc(OC)c(OC)cc23)cc1OC", "114 to 116 °C"),
    ("Cc1ccc([N+](=O)[O-])cc1C=Cc1ccccc1", "65.5 °C"),
    ("COC(=O)Cc1ccc(C#C[Si](C)(C)C)cc1", "55 to 58 °C"),
    ("COc1ccccc1NC(=O)Nc1cccc(-n2c(=O)c(CCC(=O)ON3C(=O)CCC3=O)nc3cccnc32)c1", "235 to 237 °C"),
    ("NS(=O)(=O)c1ccc(CCNC(=O)CCn2cnc3c(=O)[nH]cnc32)cc1", "212 to 216 °C"),
    ("COc1ccc(C=O)c(Cl)c1O", "204 to 206 °C"),
    ("Cn1c(C(F)(F)F)cc(=O)n(-c2cc(N)c(Cl)cc2F)c1=O", "132 to 135 °C"),
    ("COc1ccc(Cc2c[nH]c(=O)c3ccccc23)cn1", "191 °C"),
    ("CC(C)(C)c1ccc(-c2cc3ccc(C(=O)O)cc3s2)cc1", "318 °C"),
    ("CC(C)(CC(=O)O)CC(=O)NC1(C(=O)NCCCCNc2ncccn2)Cc2ccccc2C1", "70 to 83 °C"),
]
